# TARGET: NLRP3 (Homo sapiens (Human), UniProt Q96P20)
# Sequence (Q96P20 whole entry): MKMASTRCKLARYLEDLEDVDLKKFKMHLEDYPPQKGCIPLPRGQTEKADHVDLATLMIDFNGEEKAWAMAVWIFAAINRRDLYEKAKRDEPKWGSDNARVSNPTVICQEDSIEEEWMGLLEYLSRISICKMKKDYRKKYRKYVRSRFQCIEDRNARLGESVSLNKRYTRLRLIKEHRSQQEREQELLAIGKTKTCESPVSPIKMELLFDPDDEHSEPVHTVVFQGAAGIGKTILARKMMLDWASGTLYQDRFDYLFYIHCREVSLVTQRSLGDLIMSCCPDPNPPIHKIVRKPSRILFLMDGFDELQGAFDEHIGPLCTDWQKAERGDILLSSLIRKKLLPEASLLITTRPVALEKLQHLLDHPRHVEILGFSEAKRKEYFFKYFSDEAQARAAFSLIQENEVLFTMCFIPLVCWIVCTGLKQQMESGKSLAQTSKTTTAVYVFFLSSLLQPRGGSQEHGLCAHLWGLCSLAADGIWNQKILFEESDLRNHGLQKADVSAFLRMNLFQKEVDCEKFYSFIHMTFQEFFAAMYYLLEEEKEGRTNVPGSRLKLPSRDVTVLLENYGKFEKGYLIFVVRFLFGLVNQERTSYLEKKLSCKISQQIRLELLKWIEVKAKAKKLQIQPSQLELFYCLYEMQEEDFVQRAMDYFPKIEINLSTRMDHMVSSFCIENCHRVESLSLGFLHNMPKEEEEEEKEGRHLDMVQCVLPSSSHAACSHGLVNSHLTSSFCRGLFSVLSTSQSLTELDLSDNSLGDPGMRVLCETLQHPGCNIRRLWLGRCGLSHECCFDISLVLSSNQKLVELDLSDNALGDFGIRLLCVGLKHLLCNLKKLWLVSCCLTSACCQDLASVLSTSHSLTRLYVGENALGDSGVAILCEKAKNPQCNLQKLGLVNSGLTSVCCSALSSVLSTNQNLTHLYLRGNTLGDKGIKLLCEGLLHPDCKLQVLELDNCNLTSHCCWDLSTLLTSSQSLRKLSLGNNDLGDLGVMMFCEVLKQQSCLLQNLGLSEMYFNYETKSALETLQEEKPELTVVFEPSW
# ASSAY INFO: THP-1 cells pyroptosis assay (LPS + nigericin, resazurin read-out)
# Assay type: cell-based
# REPORTED CONDITIONS: 1 μg/ml LPS, 5 μM nigericin
# Protocol: THP-1 cells (ATCC #TIB-202) were grown in RPMI containing L-glutamine (Gibco 15 #11835) supplemented with 1 mM sodium pyruvate (Sigma #S8636) and penicillin (100 units/ml)/streptomycin (0.1 mg/ml) (Sigma #P4333) in 10% Fetal Bovine Serum (FBS) (Sigma #F0804). […] The cells were then counted and viability (>90%) checked by Trypan blue (Sigma #T8154). […] The following method step-by-step assay was followed for compound screening. • 1. […] Plates were read in an Envision reader at Ex 560 nm and Em 590 nm • 9. […]
Structures can show the parent of a compound that is named as a salt.
ENDPOINT: IC50

Here is how some molecules turned out for IC50.
>  <MOLECULE>
CC(C(F)F)N1CC(S(=O)(=O)NC(=O)Nc2c3c(cc4c2CCC4)CCC3)C1 (stereo not drawn) [Example 131, potassium salt]

>  <ENDPOINT>
IC50

>  <ENDPOINT RESULT>
< 1000 nM

$$$$
>  <MOLECULE>
CC(C)N1CC(N2CCC(S(=O)(=O)NC(=O)Nc3c4c(cc5c3CCC5)CCC4)C2)C1 (stereo not drawn) [Example 51, potassium salt]

>  <ENDPOINT>
IC50

>  <ENDPOINT RESULT>
1000 to 10000 nM

$$$$
>  <MOLECULE>
CN1CC(N2CCC(S(=O)(=O)NC(=O)Nc3c4c(cc5c3CCC5)CCC4)CC2)C1 [Example 80, potassium salt]

>  <ENDPOINT>
IC50

>  <ENDPOINT RESULT>
1000 to 10000 nM

$$$$
>  <MOLECULE>
O=C(Nc1c2c(cc3c1CCC3)CCC2)NS(=O)(=O)C1CN(C2C[S+]([O-])C2)C1 (stereo not drawn) [Example 117, potassium salt]

>  <ENDPOINT>
IC50

>  <ENDPOINT RESULT>
< 1000 nM

$$$$
>  <MOLECULE>
C/C(CN1CC(S(=O)(=O)NC(=O)Nc2c3c(cc4c2CCC4)CCC3)C1)=N/O [Example 128, potassium salt]

>  <ENDPOINT>
IC50

>  <ENDPOINT RESULT>
1000 to 10000 nM

$$$$

Asked: Requested read-out IC50, target or system NLRP3 (Homo sapiens (Human), UniProt Q96P20), entry O=C(Nc1c2c(cc3c1CCC3)CCC2)NS(=O)(=O)C1CCN(C2CCC2)CC1 [Example 15, potassium salt]
Given back: 1000 to 10000 nM

Asked: Requested read-out IC50, target or system NLRP3 (Homo sapiens (Human), UniProt Q96P20), entry CC(C)(C)[Si](C)(C)OCCN1CC(S(=O)(=O)NC(=O)Nc2c3c(cc4c2CCC4)CCC3)C1 [Example 151, potassium salt]
Given back: < 1000 nM

Asked: Requested read-out IC50, target or system NLRP3 (Homo sapiens (Human), UniProt Q96P20), entry O=C(Nc1c2c(cc3c1CCC3)CCC2)NS(=O)(=O)C1CCN(C2CC2)C1 (stereo not drawn) [Example 39, potassium salt]
Given back: < 1000 nM

###

# IC50 per entry
# TARGET: NLRP3 (Homo sapiens (Human))
# ASSAY INFO: THP-1 cells pyroptosis assay (LPS + nigericin, resazurin read-out)
# Type: cell-based
# REPORTED CONDITIONS: 1 μg/ml LPS, 5 μM nigericin
Structures can show the parent of a compound that is named as a salt.

Here is how some molecules turned out for IC50.
>  <MOLECULE>
CC(C)(O)CN1CC(S(=O)(=O)NC(=O)Nc2c3c(cc4c2CCC4)CCC3)C1 [Example 84, potassium salt]

>  <IC50>
< 1000 nM

$$$$
>  <MOLECULE>
O=C(Nc1c2c(cc3c1CCC3)CCC2)NS(=O)(=O)C1CN(CCF)C1 [Example 108, potassium salt]

>  <IC50>
< 1000 nM

$$$$
>  <MOLECULE>
CC(C)N1CCC(S(=O)(=O)NC(=O)Nc2c3c(cc4c2CCC4)CCC3)C1=O (stereo not shown) [Example 68, potassium salt]

>  <IC50>
< 1000 nM

$$$$

Please find the next molecule below.
Asked: // returns reported IC50 for input O=C(Nc1c2c(cc3c1CCC3)CCC2)NS(=O)(=O)C1CN(CC2CCC2)C1 [Example 126, potassium salt]
Given back: 1000 to 10000 nM

###

# ASSAY INFO: PK, intravenous administration
# Type: in vivo, male Sprague Dawley rats
# REPORTED CONDITIONS: male, Sprague Dawley, plasma; rat, intravenous, dose 1 mg/kg; read-out: T1/2 (converted)
Structures can show the parent of a compound that is named as a salt.
# half-life per entry
Numeric only. Scale: h

Here is how some compounds turned out for half-life.
>  <COMPOUND>
CC(C)N1CC(S(=O)(=O)NC(=O)Nc2c3c(cc4c2CCC4)CCC3)C1 [Example 46, potassium salt]

>  <MEASURE UNIT>
h

>  <ENDPOINT RESULT>
1.2

$$$$
>  <COMPOUND>
O=C(Nc1c2c(cc3c1CCC3)CCC2)NS(=O)(=O)C1CN(C2CSC2)C1 [Example 109, potassium salt]

>  <MEASURE UNIT>
h

>  <ENDPOINT RESULT>
1.3

$$$$
>  <COMPOUND>
CC(C)N1CCCC(S(=O)(=O)NC(=O)Nc2c3c(cc4c2CCC4)CCC3)C1 (stereo not drawn) [Example 31, potassium salt]

>  <MEASURE UNIT>
h

>  <ENDPOINT RESULT>
4.5

$$$$
>  <COMPOUND>
CCN1CCCC(S(=O)(=O)NC(=O)Nc2c3c(cc4c2CCC4)CCC3)C1 (stereo not drawn) [Example 9, potassium salt]

>  <MEASURE UNIT>
h

>  <ENDPOINT RESULT>
3.9

$$$$
>  <COMPOUND>
O=C(Nc1c2c(cc3c1CCC3)CCC2)NS(=O)(=O)C1CN(C2CCC2)C1 [Example 18, potassium salt]

>  <MEASURE UNIT>
h

>  <ENDPOINT RESULT>
0.9

$$$$
>  <COMPOUND>
CCCN1CC(S(=O)(=O)NC(=O)Nc2c3c(cc4c2CCC4)CCC3)C1 [Example 76, potassium salt]

>  <MEASURE UNIT>
h

>  <ENDPOINT RESULT>
1

$$$$

Asked: // returns reported half-life for input COc1cc(-c2ccc3c(c2NC(=O)NS(=O)(=O)c2cn(C(C)C)c(=O)cn2)CCC3)ccn1
Given back: 1

###

# ASSAY INFO: PK, intravenous administration
# Format: in vivo, male Sprague Dawley rats
# REPORTED CONDITIONS: male, Sprague Dawley, plasma; rat, intravenous, dose 1.46 mg/kg; read-out: T1/2 (converted)
Where a name gives a salt, the structure may show the parent alone.
ENDPOINT: half-life (h)
Numeric only. Scale: h

Asked: // returns reported half-life for input CCN1CCC(S(=O)(=O)NC(=O)Nc2c3c(cc4c2CCC4)CCC3)C1 (stereo not shown) [Example 37, potassium salt]
Given back: 2.1

###

# ASSAY INFO: PK, intravenous administration
# Format: in vivo, male Sprague Dawley rats
# REPORTED CONDITIONS: male, Sprague Dawley, rat, in vivo, iv, 0.66 mg/kg
Counter-ions that a name gives are not always drawn.
ENDPOINT: Vd (L/kg)
Numeric only. Scale: L/kg

Asked: // returns reported Vd for input CC(C)N1[C@@H]2CC[C@H]1C[C@@H](S(=O)(=O)NC(=O)Nc1c3c(cc4c1CCC4)CCC3)C2 [Example 45, potassium salt]
Given back: 2.06

###

# TARGET: UniProt:Q96P20
# ASSAY INFO: Human whole blood IL1β release assay (LPS + nigericin)
# Type: cell-based
Where a name gives a salt, the structure may show the parent alone.
ENDPOINT: IC50

Asked: Requested read-out IC50, target or system UniProt:Q96P20, entry O=C(Nc1c2c(cc3c1CCC3)CCC2)NS(=O)(=O)C1CN(CCCl)C1 [Example 92, potassium salt]
Given back: 1 to 10 µM

###

# ASSAY INFO: PK, oral administration
# Type: in vivo, male Sprague Dawley rats
# REPORTED CONDITIONS: male, Sprague Dawley, plasma, rat, dose 3 mg/kg
Where a name gives a salt, the structure may show the parent alone.
ENDPOINT: half-life

>  <COMPOUND>
CCN1CCC(S(=O)(=O)NC(=O)Nc2c3c(cc4c2CCC4)CCC3)CC1 [Example 6, potassium salt]

>  <half-life>
2.7 h

$$$$

Please find the next compound below.
Asked: // returns reported half-life for input CC(C)N1CC(S(=O)(=O)NC(=O)Nc2c3c(cc4c2CCC4)CCC3)C1 [Example 46, potassium salt]
Given back: 1.4 h
